Assay: compound fluorescence in toxin protease inhibitor counterscreen, primary screen, artefact control for toxin protease inhibitor project, biochemical, multiplex microsphere, HTS (AID 624483)
Conditions: compound autofluorescence counterscreen, microsphere flow cytometry
Among all 360,000 compounds or so, about 11,000 (3.1%) were called active. Another 2% or so got no clear call; they are omitted. Rule as the data show it: active = fluorescence intensity above about 16000; inconclusive = no clear call, values can overlap the other calls; inactive = below that. The full list was thinned out, with actives kept by preference.
Give one outcome, nothing more. List: active, inactive

Record request — test call for C=CCN1C2CCCC1CC(NC(=S)Nc1cccc(OC)c1)C2 (stereo unspecified)
inactive

Next up: Cc1cccc(NC(=O)c2ccc3nsnc3c2)c1C
inactive

Next up: Cc1ccc(S(=O)(=O)N2CCC(C(=O)OCC(=O)N3CC(=O)Nc4ccccc43)CC2)cc1
active

Next up: O=C(Nc1ccccc1)c1ccc2nsnc2c1
active

Next up: CCOC(=O)c1sc(NC(=O)c2sc(C)nc2C)nc1C
inactive

Next up: Cc1ccc(S(=O)(=O)N(C)CC(=O)OCC(=O)N2CC(=O)Nc3ccccc32)cc1
inactive

Next up: CCN(CCN(C)C)C(=O)c1ccc2nc(C)c(N(C)C(=O)CCc3ccccc3)n2c1
inactive

Next up: CC(C)NC(=O)N1Cc2cc(C(=O)NCC(F)(F)F)nc(-c3cccc(-c4cc5ccccc5o4)c3)c2[C@@H]1CCO
inactive

Next up: CC1CC(C)CN(CCCNC(=O)c2csc3c2CCCCC3)C1 (stereo unspecified)
inactive

Next up: CC(C)Cc1ccc(-c2cc3nc(NCc4cccc(Cl)c4)ccn3n2)cc1
inactive

Next up: Clc1ccc(C=NC23CN4CN(CN(C4)C2)C3)cc1
inactive
